Here's what we have: AC50 numbers for D(3) dopamine receptor (Homo sapiens).

These recorded examples may help you get a feel for the data.
# COMPOUND, TESTED_SYSTEM, RECORDED_MEASUREMENT
rows = [
    ("CC[C@]12CCCN3CCc4c(n(c5ccccc45)[C@@](O)(C(=O)OC)C1)[C@@H]32", "D(3) dopamine receptor (Homo sapiens)", "> 30 µM"),
    ("COc1ccc2c(C(=S)N(C)CC(=O)O)cccc2c1C(F)(F)F", "D(3) dopamine receptor (Homo sapiens)", "> 30 µM"),
    ("C[C@H](N[C@@H](CCc1ccccc1)C(=O)O)C(=O)N1Cc2ccccc2C[C@H]1C(=O)O", "D(3) dopamine receptor (Homo sapiens)", "> 30 µM"),
    ("Cc1ccsc1C(=CCCN1CCC[C@@H](C(=O)O)C1)c1sccc1C", "D(3) dopamine receptor (Homo sapiens)", "> 30 µM"),
    ("O=C(O)CN(CCN(CC(=O)O)CC(=O)O)CCN(CC(=O)O)CC(=O)O", "D(3) dopamine receptor (Homo sapiens)", "2.26 µM"),
]

Please look up its AC50: CC(C)(C)NC(=O)N[C@H](C(=O)N1C[C@H]2[C@@H]([C@H]1C(=O)NC(CC1CCC1)C(=O)C(N)=O)C2(C)C)C(C)(C)C (stereo partly drawn)
> 30 µM

Please look up its AC50: CC(C)C(=O)Oc1ccc(CO)cc1[C@H](CCN(C(C)C)C(C)C)c1ccccc1
> 30 µM

Please look up its AC50: CCCc1nc2c(C)cc(-c3nc4ccccc4n3C)cc2n1Cc1ccc(-c2ccccc2C(=O)O)cc1
> 30 µM

Please look up its AC50: C#C[C@]1(O)C=C[C@H]2[C@@H]3CCC4=CC(=O)CC[C@@H]4[C@H]3CC[C@@]21CC
> 30 µM

Please look up its AC50: N[C@@H](Cc1ccccc1)C(=O)O
> 30 µM

* * *

Quick list: AC50 per entry.
# TESTED_SYSTEM: Prostaglandin G/H synthase 1 (Homo sapiens); note: assay procedure not described here
# Sequence (P23219 whole entry): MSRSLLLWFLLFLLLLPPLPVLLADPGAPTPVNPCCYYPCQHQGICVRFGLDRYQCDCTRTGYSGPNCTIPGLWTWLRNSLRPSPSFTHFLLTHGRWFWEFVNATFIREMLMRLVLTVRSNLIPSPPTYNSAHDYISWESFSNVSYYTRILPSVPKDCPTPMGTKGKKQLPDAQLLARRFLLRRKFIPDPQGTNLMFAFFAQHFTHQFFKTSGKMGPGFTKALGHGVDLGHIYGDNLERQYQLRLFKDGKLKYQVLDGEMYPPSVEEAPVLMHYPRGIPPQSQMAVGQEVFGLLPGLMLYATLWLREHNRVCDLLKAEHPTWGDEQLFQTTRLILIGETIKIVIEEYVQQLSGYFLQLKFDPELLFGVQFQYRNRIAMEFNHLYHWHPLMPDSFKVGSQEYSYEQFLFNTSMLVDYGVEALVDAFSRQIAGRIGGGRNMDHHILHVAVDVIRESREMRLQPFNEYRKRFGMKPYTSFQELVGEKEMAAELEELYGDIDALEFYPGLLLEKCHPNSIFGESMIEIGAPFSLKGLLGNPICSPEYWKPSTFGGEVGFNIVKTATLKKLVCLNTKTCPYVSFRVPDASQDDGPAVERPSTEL
# Format: functional

# MOLECULE, AC50
measured = [
    ("O=C(O)P(=O)(O)O [FOSCARNET]", "> 30 µM"),
    ("C[N+]1(C)CCCC(OC(=O)C(O)(c2ccccc2)c2ccccc2)C1 (stereo not given) [MEPENZOLATE]", "> 30 µM"),
    ("O=C(/C=C/c1cccc(S(=O)(=O)Nc2ccccc2)c1)NO [BELINOSTAT]", "5.61 µM"),
]

Lookup: AC50 / Prostaglandin G/H synthase 1 (Homo sapiens) / CC[C@]12CCCN3CCc4c(n(c5ccccc45)[C@@](O)(C(=O)OC)C1)[C@@H]32 [VINCAMINE]
> 30 µM

Lookup: AC50 / Prostaglandin G/H synthase 1 (Homo sapiens) / Nc1cccc2c1C(=O)N(C1CCC(=O)NC1=O)C2=O (stereo not given) [POMALIDOMIDE]
> 30 µM

Lookup: AC50 / Prostaglandin G/H synthase 1 (Homo sapiens) / CCC1=C[C@@H]2CN(C1)Cc1c([nH]c3ccccc13)[C@@](C(=O)OC)(c1cc3c(cc1OC)N(C)[C@H]1[C@@](O)(C(=O)OC)[C@H](OC(C)=O)[C@]4(CC)C=CCN5CC[C@]31[C@@H]54)C2 [VINORELBINE]
> 30 µM

Lookup: AC50 / Prostaglandin G/H synthase 1 (Homo sapiens) / COC(=O)C[C@](O)(CCCC(C)(C)O)C(=O)O[C@@H]1C(OC)=C[C@]23CCCN2CCc2cc4c(cc2[C@H]13)OCO4 [OMACETAXINE MEPESUCCINATE]
> 10 µM

Lookup: AC50 / Prostaglandin G/H synthase 1 (Homo sapiens) / O=C(O)CN(CCN(CC(=O)O)CC(=O)O)CCN(CC(=O)O)CC(=O)O [PENTETIC ACID]
> 30 µM

Lookup: AC50 / Prostaglandin G/H synthase 1 (Homo sapiens) / CN1CCCN(C(c2ccccc2)c2ccc(Cl)cc2)CC1 (stereo not given) [HOMOCHLORCYCLIZINE]
> 30 µM

Lookup: AC50 / Prostaglandin G/H synthase 1 (Homo sapiens) / CC[C@H]1OC(=O)[C@H](C)[C@@H](O[C@H]2C[C@@](C)(OC)[C@@H](O)[C@H](C)O2)[C@H](C)[C@@H](O[C@@H]2O[C@H](C)C[C@H](N(C)C)[C@H]2O)[C@](C)(O)C[C@@H](C)[C@@H]2N[C@@H](COCCOC)O[C@H]([C@H]2C)[C@]1(C)O [DIRITHROMYCIN]
9.63 µM

Lookup: AC50 / Prostaglandin G/H synthase 1 (Homo sapiens) / N[C@@H](Cc1ccccc1)C(=O)O [PHENYLALANINE]
28 µM

Lookup: AC50 / Prostaglandin G/H synthase 1 (Homo sapiens) / CC(=O)[C@H]1CC[C@H]2[C@@H]3C=CC4=CC(=O)CC[C@@]4(C)[C@@H]3CC[C@]12C [DYDROGESTERONE]
> 30 µM

Lookup: AC50 / Prostaglandin G/H synthase 1 (Homo sapiens) / Clc1ccc(C(Cn2ccnc2)OCc2csc3c(Cl)cccc23)c(Cl)c1 (stereo not given) [SERTACONAZOLE]
7.68 µM

Lookup: AC50 / Prostaglandin G/H synthase 1 (Homo sapiens) / NC(=O)[C@@H]1CC[C@@H]2CN1C(=O)N2OS(=O)(=O)O [AVIBACTAM]
> 30 µM

Lookup: AC50 / Prostaglandin G/H synthase 1 (Homo sapiens) / O=S1(=O)CCN(CN2CCS(=O)(=O)NC2)CN1 [TAUROLIDINE]
> 30 µM
